src = PubChem BioAssay (NCATS)

Tested on: Zika virus NS2B-NS3 protease (linked construct)
Experiment: Primary screen NINDS Rhodamine qHTS for Zika virus inhibitors (AID 1347160); also: nearly all actives have a fitted effect of over 55% in size
Details: purified NS2B-NS3 protease, Rhodamine110 substrate fluorescence; series mostly up to 57.1 µM
Source text: Avindra Nath, Ph.D., National Institute of Neurological Disorders and Stroke (NINDS), Bethesda, MD Radhakrishnan Padmanabhan, Ph.D., Georgetown University (GU), Washington D.C. Zika Virus causes congenital defects, including microcephaly and is associated with Guillain-Barre syndrome, eningoencephalitis and myelitis in infected adult. […]
Results filed as inconclusive are left out. Activity calls are given as the source filed them. Calls follow the shape of the dose curve; as a rule, active = well fitted inhibition curve with a large enough effect; inconclusive = small, poorly fitted or top-dose-only effect; inactive = no such curve, though single readings can be large or run the other way.
Reported metric: outcome

{"Compound": "CO[C@H]1[C@H](O)[C@H](O[C@H]2CC[C@]3(C)C4CC[C@]5(C)[C@H](C6=CC(=O)OC6)CC[C@]5(O)C4CC[C@@H]3C2)O[C@@H](C)[C@@H]1O (some centres undefined)", "Reported metric": "outcome", "Experimental value": "inactive"}
{"Compound": "CN(C(=O)Cc1ccccc1)C(CN1CCCC1)c1ccccc1 (centres undefined)", "Reported metric": "outcome", "Experimental value": "inactive"}
{"Compound": "CN(C)CCc1c[nH]c2ccc(CN3CCN(C)S3(=O)=O)cc12", "Reported metric": "outcome", "Experimental value": "inactive"}
